Biological target: AdpAlin (Streptomyces lincolnensis NRRL 2936) (UniProt A0A1B1M9Y0)
Sequence: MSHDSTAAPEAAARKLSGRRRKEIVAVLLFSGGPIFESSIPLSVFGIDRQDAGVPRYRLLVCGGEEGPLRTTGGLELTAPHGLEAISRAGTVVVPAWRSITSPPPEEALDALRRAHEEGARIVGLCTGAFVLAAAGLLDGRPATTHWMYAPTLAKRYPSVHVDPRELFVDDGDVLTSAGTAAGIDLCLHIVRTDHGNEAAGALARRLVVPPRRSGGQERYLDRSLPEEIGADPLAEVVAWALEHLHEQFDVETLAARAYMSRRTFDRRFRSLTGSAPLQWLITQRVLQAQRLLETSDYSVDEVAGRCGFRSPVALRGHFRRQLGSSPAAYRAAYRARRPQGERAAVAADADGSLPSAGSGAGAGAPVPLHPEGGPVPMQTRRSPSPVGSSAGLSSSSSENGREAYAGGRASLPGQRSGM
Assay: EMSA
Conditions: EMSA: 20 mM Tris-HCl pH 7.5, 5% glycerol, 0.1% BSA; 2.5 nM 5'-biotin probe; AdpAlin 0-6.4 uM (12.8 uM for probe-neg); 200-fold unlabeled competitor; salt and …
METRIC NAME: binding

In the examples that follow, each entry is paired with its recorded binding.
# RESIDUE CODES, TESTED ON, binding
measured = [
    ("AGCCAGTGACGATAAGCTATAGGCTTCGCGGGCTTCGAACTCCGCAGCCGCCACGCCGACTTCGACGGTGCCGCCTACCGCCCGGACAGCCGCTACCACGTGTCCGTCTACGCCCGGGCGCACGGTGACTAGGGCGCGACGGCTCGCCGCCGCCGCGTTCCGGGCCTTATCGTCACTGGCT (double strand) [mlmbKp-B]", "AdpAlin (Streptomyces lincolnensis NRRL 2936) (UniProt A0A1B1M9Y0)", "no binding"),
    ("AGCCAGTGACGATAAGGGTTCCCGTGGTGCTCCTCTGGTACGGCACCTCGCTCGCCGGCGCCGCCGGCACCGCGCTCGGACTGGCCGCCGTCACCGCCGTCTGCCGTATCCTCCTGCGCCAGTCGGAGCGCGGTGCGGCACGGCTACTGGCCGAAGAACGGGCCCCCCATCGCGGCCACCGCCACCGGGCCGGAACGGGGACACACAGGGGTGGGCGCTTATCGTCACTGGCT (double strand) [adpAp-B-2]", "AdpAlin (Streptomyces lincolnensis NRRL 2936) (UniProt A0A1B1M9Y0)", "binds"),
    ("AGCCAGTGACGATAAGCGGGGACACACAGGGGTGGGCGGCACGGTGGGGGAAATACACCGGTCGGCTGACCGGTTTCCGCGCACGCGCCCGACTCTTTTCAGCCAACTTCCGACCACCGGGCATCCTTGTGTCCAACCACCCCCCAACCCCCGTTTGACCTGCACGGAAAGGGTCCCCACTTATCGTCACTGGCT (double strand) [adpAp-B-1]", "AdpAlin (Streptomyces lincolnensis NRRL 2936) (UniProt A0A1B1M9Y0)", "no binding"),
    ("AGCCAGTGACGATAAGCGAGACAAGCAATCGGCTTCACGCCCTGTCAAGCGGCAGCAGACGGCTTCCCGTAATTCCTGGAAGTTATCCGGGAGTCGGCGCGAACGGCCCTCGATATCCGGTGCATTACCTGGGAATAGGGAATAGGGAACCGGTAATCCGCGGTCGGGGCAAGCGTCTGGGTGCGTGGACTTATCGTCACTGGCT (double strand) [mlmbAp-A]", "AdpAlin (Streptomyces lincolnensis NRRL 2936) (UniProt A0A1B1M9Y0)", "no binding"),
    ("AGCCAGTGACGATAAGGCGTTTACCTAGAACAAATCCGGGGCAAGCTCGCTCAGCTGTCGCCATGGGCGCCCTGACGCCACTGCGGCCCACGGATCGCCCCGTCAGCAAACTGGCCGAATGCCAACGGCATACGGCCAGTTCCTGACGCGGGCCACGGGGTTCACTCCGCGGACCACGCGTGCGGCGGCCGCCTCACTTATCCCGATGAGGCCACGCGTCGTCCGCCTCCGCGATCTCCTCCAGGGTTCCGTCCTTATCGTCACTGGCT (double strand) [lmbUp-C]", "AdpAlin (Streptomyces lincolnensis NRRL 2936) (UniProt A0A1B1M9Y0)", "binds"),
]

# binding (sequence: AGCCAGTGACGATAAGGGCGTAGACGGACACGTGGTAGCGGCTGTCCGGGCGGTAGGCGGCACCGTCGAAGTCGGCGTGGCGGCTGCGGAGTTCGAAGCCCGCGAAGCGGGCCATCAGGTCCAGCTCCGTGGGGTGCTTATCGTCACTGGCT (double strand) [lmbKp-B] ) is binds

# binding (sequence: AGCCAGTGACGATAAGGGCCACACGTCGTAGACATCTGCGATCTTGTCACCGTAGAGCTTCGCGAAATCATGGTCGGACATTGAATTCTCTTTCCTCACCAGGCTCGGCGAGCGGCCGCAGGGAGACGGTGGCATGGGACGCGAGGGACAGTCGACACGGCAGCCGGTACCGGCGGTGTTCTTCGACCGGGACGGCGCTTATCGTCACTGGCT (double strand) [mlmbJp-A] ) is no binding

Entry source: paper PMC6819324
